Cited source: PubChem BioAssay (NCI)

The following compounds are shown together with reported TGI values.
Tested on: SNB-19 CNS
assaySummary: NCI tumour cell line growth inhibition, 48 h

Look over these answered cases.
>>> print(df.to_string())
                                   compound  testtarget   observed
0          O=C1Sc2ccc(Br)cc2C(=O)Sc2ccccc21  SNB-19 CNS    29.5 µM
1  COCCOC(=O)NC(=O)Nc1ccc(/C(=N/O)c2ccc(Cl)cc2)cc1  SNB-19 CNS   > 100 µM
2              NNc1cccc(/C=C/c2ccccc2)cc1=O  SNB-19 CNS   > 100 µM
3             NC(=O)c1cc(Br)cc(C2CCCCC2)c1O  SNB-19 CNS    27.9 µM
4               CN1NC2(CCCCC2)ON=C1c1ccccc1  SNB-19 CNS   > 100 µM
5  CCOC(=O)c1[nH]c(-c2ccc(Cl)cc2)cc1-c1cccnc1  SNB-19 CNS   > 100 µM
6          COc1ccccc1-c1cc(=O)c2ccccc2[nH]1  SNB-19 CNS   > 100 µM
7            N=C(N=C(N)N)N1CCN(c2ccncc2)CC1  SNB-19 CNS  > 1000 µM

[Q] Could you tell me which TGI is on file for O=C(NCCCCCCNC(=O)n1cc(F)c(=O)[nH]c1=O)NCCCOCCOCCCNC(=O)C(O)C(O)C(O)C(O)CO (stereo not drawn) ?
[A] > 2.5 µM

[Q] Moving on to the next compound: O=C1/C(=C\c2cccc(Oc3ccccc3)c2)S(=O)(=O)C(c2ccccc2)N1c1ccccc1Cl (stereo not drawn)
[A] 64 µM

[Q] Moving on to the next compound: COC1CC2C=C(C)/C=C/C=C/C(=O)NC(c3ccccc3)C/C=C/CCC(O)CC(=O)C2=C1O (stereo not drawn)
[A] 1.42 µM

[Q] Moving on to the next compound: COC(=O)c1cc(NC(=O)c2cc(NC(=O)c3cc([N+](=O)[O-])cn3C)cn2C)cn1C
[A] > 100 µM

[Q] Moving on to the next compound: C=C=C(CC)C(C(=O)OC)N(CC)CC (stereo not drawn)
[A] > 100 µM

----------
The following molecules are shown together with reported TGI values.
Test system: NCI-H226 lung
assaySummary: NCI tumour cell line growth inhibition, 48 h
Supply the numeric figure in µM, leaving out any unit text.

molecule	TGI [µM]
CCOC(=O)c1cc(C(=O)c2ccccc2)n2nc(-c3ccc(Cl)cc3)ccc12	55.8
Cc1nc2ccc(Nc3nc(NCCN4CCOCC4)nc(Nc4ccc(F)cc4)n3)cc2n1Cc1ccccc1	27.9
CCOC(=O)Oc1cc2c(c(OC)c1OC)-c1ccc(SC)c(=O)cc1C(NC(=O)C(F)(F)F)CC2 (stereo not given)	0.00301

Now consider the entry below.
[Q] Could you tell me which TGI is on file for COc1cc(/C=C\[N+](=O)[O-])ccc1OCc1ccccc1 ?
[A] 5.47

----------
The following compounds are shown together with reported TGI values.
Test system: M14 melanoma
assaySummary: NCI tumour cell line growth inhibition, 48 h

compound	TGI
COC1OC(CO)C(O)C(O)C1Br (stereo not given)	> 100 µM

[Q] Could you tell me which TGI is on file for O=C1NC(N/N=C\C(O)C(O)C(O)CO)=N/C1=C/c1ccc(Cl)cc1 (stereo not given) ?
[A] 77.8 µM

[Q] Moving on to the next compound: O=S(=O)(NCC1CCC(CNc2ccc(Cl)cc2)CC1)c1ccc(-c2ccccc2)cc1 (stereo not given)
[A] > 50 µM

[Q] Moving on to the next compound: O=C1/C(=C\c2cccc(Oc3ccccc3)c2)S(=O)(=O)C(c2ccccc2)N1c1ccccc1Cl (stereo not given)
[A] 89.1 µM

[Q] Moving on to the next compound: [Se]=P(c1ccccc1)(c1ccccc1)c1ccc(C(c2ccccc2)=P(c2ccccc2)(c2ccccc2)c2ccccc2)cc1
[A] 24.5 µM

[Q] Moving on to the next compound: CC(C)c1ccc(/C(C(=O)O)=C(\O)C(=O)O)cc1
[A] > 100 µM

[Q] Moving on to the next compound: O=C1CC(=O)c2c(O)cc(O)c(c2O)-c2c(ccc(O)c2O)C2=CC(=O)c3c(O)cc(O)c(c3O2)-c2c1ccc(O)c2O (tested in a mixture with another compound)
[A] > 50 µM

[Q] Moving on to the next compound: Cn1c(=O)c(Oc2ccccc2F)cc2cnc(NC3CCOCC3)nc21
[A] > 25 µM

[Q] Moving on to the next compound: O=C1O/C(=C(\Br)c2cccc3ccccc23)c2ccccc21
[A] > 62.8 µM
